Target: P300 (Homo sapiens)
Sequence (Q09472 whole entry): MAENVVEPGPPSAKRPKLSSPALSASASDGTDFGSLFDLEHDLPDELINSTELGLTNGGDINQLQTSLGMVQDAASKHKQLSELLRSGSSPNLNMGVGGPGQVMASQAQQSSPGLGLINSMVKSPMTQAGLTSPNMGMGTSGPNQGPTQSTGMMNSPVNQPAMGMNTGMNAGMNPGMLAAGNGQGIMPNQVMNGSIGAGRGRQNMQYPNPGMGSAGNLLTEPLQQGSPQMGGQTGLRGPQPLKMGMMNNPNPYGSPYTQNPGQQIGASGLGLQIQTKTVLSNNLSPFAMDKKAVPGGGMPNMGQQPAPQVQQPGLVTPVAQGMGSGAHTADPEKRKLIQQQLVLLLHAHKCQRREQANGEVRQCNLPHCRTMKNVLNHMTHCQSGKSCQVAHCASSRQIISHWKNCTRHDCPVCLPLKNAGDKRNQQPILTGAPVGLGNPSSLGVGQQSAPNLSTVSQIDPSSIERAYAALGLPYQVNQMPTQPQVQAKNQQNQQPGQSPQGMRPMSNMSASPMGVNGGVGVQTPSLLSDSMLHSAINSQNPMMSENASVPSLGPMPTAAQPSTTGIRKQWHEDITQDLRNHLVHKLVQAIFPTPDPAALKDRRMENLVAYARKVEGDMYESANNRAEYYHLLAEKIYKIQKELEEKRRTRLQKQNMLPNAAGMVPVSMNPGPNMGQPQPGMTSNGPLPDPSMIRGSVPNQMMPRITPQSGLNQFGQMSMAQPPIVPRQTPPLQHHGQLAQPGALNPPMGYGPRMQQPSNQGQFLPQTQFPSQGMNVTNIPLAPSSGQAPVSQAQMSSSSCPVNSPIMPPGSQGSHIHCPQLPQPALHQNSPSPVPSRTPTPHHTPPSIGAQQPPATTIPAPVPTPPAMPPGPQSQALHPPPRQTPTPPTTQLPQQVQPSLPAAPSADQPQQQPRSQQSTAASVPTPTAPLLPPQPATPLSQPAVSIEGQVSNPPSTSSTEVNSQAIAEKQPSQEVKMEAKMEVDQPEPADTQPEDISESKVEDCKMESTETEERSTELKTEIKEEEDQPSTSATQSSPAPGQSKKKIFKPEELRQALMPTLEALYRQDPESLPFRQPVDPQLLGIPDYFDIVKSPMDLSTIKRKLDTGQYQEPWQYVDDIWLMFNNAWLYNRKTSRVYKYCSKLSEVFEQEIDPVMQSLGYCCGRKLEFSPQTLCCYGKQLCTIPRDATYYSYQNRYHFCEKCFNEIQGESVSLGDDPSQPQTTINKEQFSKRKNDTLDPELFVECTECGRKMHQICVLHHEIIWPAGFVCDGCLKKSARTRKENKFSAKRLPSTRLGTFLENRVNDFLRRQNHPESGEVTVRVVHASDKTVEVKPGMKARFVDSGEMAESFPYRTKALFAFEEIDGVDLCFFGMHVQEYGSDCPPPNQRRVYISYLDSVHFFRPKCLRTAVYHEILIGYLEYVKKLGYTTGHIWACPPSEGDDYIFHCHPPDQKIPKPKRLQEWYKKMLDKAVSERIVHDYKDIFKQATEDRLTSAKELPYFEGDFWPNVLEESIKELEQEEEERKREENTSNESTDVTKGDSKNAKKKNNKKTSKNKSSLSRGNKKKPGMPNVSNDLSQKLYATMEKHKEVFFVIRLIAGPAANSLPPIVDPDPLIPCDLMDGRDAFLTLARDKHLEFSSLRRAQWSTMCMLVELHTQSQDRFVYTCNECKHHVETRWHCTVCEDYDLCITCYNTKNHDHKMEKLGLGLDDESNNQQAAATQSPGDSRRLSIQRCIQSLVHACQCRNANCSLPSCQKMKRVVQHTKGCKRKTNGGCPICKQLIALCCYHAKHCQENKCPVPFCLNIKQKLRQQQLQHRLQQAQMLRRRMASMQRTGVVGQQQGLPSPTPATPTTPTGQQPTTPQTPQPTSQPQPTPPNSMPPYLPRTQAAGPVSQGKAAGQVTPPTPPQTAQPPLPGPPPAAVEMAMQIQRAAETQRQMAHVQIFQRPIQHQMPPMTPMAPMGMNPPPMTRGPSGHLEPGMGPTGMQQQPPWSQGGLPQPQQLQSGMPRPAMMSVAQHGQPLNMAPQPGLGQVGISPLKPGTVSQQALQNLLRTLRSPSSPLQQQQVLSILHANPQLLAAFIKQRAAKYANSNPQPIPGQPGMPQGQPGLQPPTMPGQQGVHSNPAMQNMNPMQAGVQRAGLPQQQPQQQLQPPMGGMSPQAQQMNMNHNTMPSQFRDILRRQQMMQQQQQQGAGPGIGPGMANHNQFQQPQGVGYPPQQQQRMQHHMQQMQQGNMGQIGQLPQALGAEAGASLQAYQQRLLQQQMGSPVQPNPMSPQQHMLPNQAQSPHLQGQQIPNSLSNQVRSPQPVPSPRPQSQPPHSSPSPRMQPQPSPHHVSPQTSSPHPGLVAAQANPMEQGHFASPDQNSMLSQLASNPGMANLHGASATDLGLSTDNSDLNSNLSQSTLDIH
Experiment: Immunoblotting of P300 protein levels in LNCaP or 22RV1 cells
Assay type: cell-based
Design: LNCaP or 22RV1 cells that express CBP/P300 proteins were treated with GNE-781 or the bivalent compounds; endogenous in cells; host or cells: LNCaP (clone FGC) or 22RV1 cells
Settings: percentage of inhibition of p300 at 10 nM (Table 3); read-out: Degradation (10 nM)
MEASUREMENT KIND: inhibition at 0.01 µM

These recorded examples may help you get a feel for the data.
1) CC(=O)N1CCc2c(c(N3CCCc4cc(-c5cnn(C)c5)c(C(F)F)cc43)nn2C2CCN(C(=O)CCCCNc3ccc4c(c3)n(C)c(=O)n4C3CCC(=O)NC3=O)CC2)C1 (centres unmarked) [P-126]
> 80%
2) CC(=O)N1CCc2c(c(N3CCCc4cc(-c5cnn(C)c5)c(C(F)F)cc43)nn2C2CCN(C(=O)CCCCCCCCNc3ccc4c(c3)n(C)c(=O)n4C3CCC(=O)NC3=O)CC2)C1 (centres unmarked) [P-162]
> 80%
3) CC(=O)N1CCc2c(c(N3CCCc4cc(-c5cnn(C)c5)c(C(F)F)cc43)nn2C2CCN(C(=O)CCCCCCc3cccc4c3C(=O)N(C3CCC(=O)NC3=O)C4=O)CC2)C1 (centres unmarked) [P-118]
20 to 50%

Query block: Return value of inhibition at 0.01 µM for input CNC(=O)N1CCc2c(c(N3CCCc4cc(-c5cnn(C)c5)c(C(F)F)cc43)nn2C2CCN(C(=O)CCCCCCC(=O)N[C@H](C(=O)N3C[C@H](O)C[C@H]3C(=O)NCc3ccc(-c4scnc4C)cc3)C(C)(C)C)CC2)C1 [P-060] , no commentary.
Result block: < 20%

Query block: Return value of inhibition at 0.01 µM for input CNC(=O)N1CCc2c(c(N3CCCc4cc(-c5cnn(C)c5)c(C(F)F)cc43)nn2C2CCN(C(=O)CCCCCn3c(=O)n(C4CCC(=O)NC4=O)c4ccccc43)CC2)C1 (centres unmarked) [P-105] , no commentary.
Result block: 50 to 80%

Where these numbers come from: patent US20230073777A1
